# assayed-system: UniProtKB Q9HC62
# Sequence (Q9HC62 whole entry): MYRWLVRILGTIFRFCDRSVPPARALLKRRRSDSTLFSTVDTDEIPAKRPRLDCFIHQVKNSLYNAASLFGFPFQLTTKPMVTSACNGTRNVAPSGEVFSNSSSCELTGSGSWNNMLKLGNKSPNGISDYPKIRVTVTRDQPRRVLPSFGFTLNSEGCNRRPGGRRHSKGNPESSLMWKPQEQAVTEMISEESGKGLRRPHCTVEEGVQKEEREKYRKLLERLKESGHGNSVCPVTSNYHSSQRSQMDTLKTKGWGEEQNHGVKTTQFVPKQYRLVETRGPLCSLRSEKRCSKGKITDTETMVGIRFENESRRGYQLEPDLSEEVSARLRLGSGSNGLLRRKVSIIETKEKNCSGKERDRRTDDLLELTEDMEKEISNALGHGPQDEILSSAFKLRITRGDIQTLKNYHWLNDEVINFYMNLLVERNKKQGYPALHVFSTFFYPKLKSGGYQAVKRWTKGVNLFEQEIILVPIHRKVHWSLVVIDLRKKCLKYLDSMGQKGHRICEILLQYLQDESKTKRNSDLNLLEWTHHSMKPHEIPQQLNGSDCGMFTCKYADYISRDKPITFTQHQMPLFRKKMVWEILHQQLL
# experimental-protocol: Inhibition of human SENP2 using AMC-tagged SUMO1 as substrate incubated for 10 mins by fluorescence based analysis
outcome-measure: IC50

query: Find IC50 (UniProtKB Q9HC62) for the entry COC1=C(N)C(=O)c2nc(-c3nc(C(=O)O)c(C)c(-c4ccc(OC)c(OC)c4O)c3N)ccc2C1=O [CHEBI:9287]
result: 6.9 µM
